# MIC annotations
Tested on: Ser. marcescens ES-75
Assay: Anti-bacterial activity (MIC), agar dilution
Format: cell-based
Details: Serratia marcescens, ES75, 18 h, Ser. marcescens ES-75; agar dilution, about 10^6 CFU/ml, 18 hours, 37° C.; read-out: MIC
Procedure: MIC (μg/ml) were determined by an agar dilution method [Chemotherapy (Japan), 29, 76-79, 1981]. Overnight cultures of the bacterial strains in Mueller-Hinton broth were diluted to final concentration of about 10^6 CFU/ml, and 5 μl of each bacterial suspension was spotted onto Mueller-Hinton agar plates that contained twofold serial dilutions of antibiotics. MICs were measured after incubation for 18 hours at 37° C.
measure name: MIC (µg/mL)

N#CCO/N=C(\C(=O)N[C@@H]1C(=O)N2C(C(=O)[O-])=C(/C=C/C[N+]34CCN(CC3)CC4)CS[C@H]12)c1nsc(N)n1    0.2
C[C@@H](CO)[N+](C)(C)C/C=C/C1=C(C(=O)[O-])N2C(=O)[C@@H](NC(=O)/C(=N\OCC#N)c3nsc(N)n3)[C@H]2SC1    0.05
N#CCO/N=C(\C(=O)N[C@@H]1C(=O)N2C(C(=O)[O-])=C(/C=C/C[N+]34CCCN3CCC4)CS[C@H]12)c1nsc(N)n1    0.2
C[N+](C)(C/C=C/C1=C(C(=O)[O-])N2C(=O)[C@@H](NC(=O)/C(=N\OC(F)F)c3nsc(N)n3)[C@H]2SC1)CC(N)=O    0.05
CN(C)CC(O)C[N+](C)(C)C/C=C/C1=C(C(=O)[O-])N2C(=O)[C@@H](NC(=O)/C(=N\OCF)c3nsc(N)n3)[C@H]2SC1 (stereo partly drawn)    0.2
C[N+]1(C/C=C/C2=C(C(=O)[O-])N3C(=O)[C@@H](NC(=O)/C(=N\OCF)c4nsc(N)n4)[C@H]3SC2)CCNCC1    0.1
C[N+](C)(C/C=C/C1=C(C(=O)[O-])N2C(=O)[C@@H](NC(=O)/C(=N\OCF)c3nsc(N)n3)[C@H]2SC1)NC(N)=O    0.1
C[N+]1(C/C=C/C2=C(C(=O)[O-])N3C(=O)[C@@H](NC(=O)/C(=N\OCC#N)c4nsc(N)n4)[C@H]3SC2)CCN(S(N)(=O)=O)CC1    0.1
Nc1nc(/C(=N/OCF)C(=O)N[C@@H]2C(=O)N3C(C(=O)[O-])=C(/C=C/C[N+](N)(CCO)CCO)CS[C@H]23)ns1    0.05
NC(=O)C1CC[N+](C/C=C/C2=C(C(=O)[O-])N3C(=O)[C@@H](NC(=O)/C(=N\OCF)c4nsc(N)n4)[C@H]3SC2)(CCO)CC1 (single isomer, unassigned)    0.05
CC[N+](C)(C/C=C/C1=C(C(=O)[O-])N2C(=O)[C@@H](NC(=O)/C(=N\OCF)c3nsc(N)n3)[C@H]2SC1)CCO (stereo partly drawn)    0.1
